# studySystem: High affinity 3',5'-cyclic-AMP phosphodiesterase 7A (Homo sapiens)
# Sequence (Q13946 whole entry): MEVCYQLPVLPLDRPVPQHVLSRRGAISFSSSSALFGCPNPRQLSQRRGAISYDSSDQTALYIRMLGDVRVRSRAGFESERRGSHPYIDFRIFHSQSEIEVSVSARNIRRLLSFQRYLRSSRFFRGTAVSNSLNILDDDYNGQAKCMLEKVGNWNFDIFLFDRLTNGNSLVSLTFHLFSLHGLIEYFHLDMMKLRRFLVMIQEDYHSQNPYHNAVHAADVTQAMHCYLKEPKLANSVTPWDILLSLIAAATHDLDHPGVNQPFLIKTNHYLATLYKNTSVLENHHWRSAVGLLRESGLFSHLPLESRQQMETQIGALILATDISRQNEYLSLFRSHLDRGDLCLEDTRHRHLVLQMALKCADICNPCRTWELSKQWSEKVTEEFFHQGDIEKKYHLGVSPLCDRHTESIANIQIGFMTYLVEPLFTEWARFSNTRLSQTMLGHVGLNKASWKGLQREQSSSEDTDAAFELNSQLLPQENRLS
# assayNotes: Inhibition of full length human recombinant PDE7A1 using [3H]-cAMP as substrate by scintillation proximity assay
pIC50: −log10 of the molar value.
propertyLabel: pIC50

INSERT INTO results (molecule, recordedvalue) VALUES
  ('COc1ccc(C2=NN(C3CCCCCC3)C(=O)[C@@H]3CC=CC[C@H]23)cc1OCCCCOc1ccc(-c2nnn[nH]2)cc1 (racemic)', 5.50);

* * *

# studySystem: Class 1 phosphodiesterase PDEB1 (Trypanosoma brucei, UniProt Q8WQX9)
# Sequence (Q8WQX9 whole entry): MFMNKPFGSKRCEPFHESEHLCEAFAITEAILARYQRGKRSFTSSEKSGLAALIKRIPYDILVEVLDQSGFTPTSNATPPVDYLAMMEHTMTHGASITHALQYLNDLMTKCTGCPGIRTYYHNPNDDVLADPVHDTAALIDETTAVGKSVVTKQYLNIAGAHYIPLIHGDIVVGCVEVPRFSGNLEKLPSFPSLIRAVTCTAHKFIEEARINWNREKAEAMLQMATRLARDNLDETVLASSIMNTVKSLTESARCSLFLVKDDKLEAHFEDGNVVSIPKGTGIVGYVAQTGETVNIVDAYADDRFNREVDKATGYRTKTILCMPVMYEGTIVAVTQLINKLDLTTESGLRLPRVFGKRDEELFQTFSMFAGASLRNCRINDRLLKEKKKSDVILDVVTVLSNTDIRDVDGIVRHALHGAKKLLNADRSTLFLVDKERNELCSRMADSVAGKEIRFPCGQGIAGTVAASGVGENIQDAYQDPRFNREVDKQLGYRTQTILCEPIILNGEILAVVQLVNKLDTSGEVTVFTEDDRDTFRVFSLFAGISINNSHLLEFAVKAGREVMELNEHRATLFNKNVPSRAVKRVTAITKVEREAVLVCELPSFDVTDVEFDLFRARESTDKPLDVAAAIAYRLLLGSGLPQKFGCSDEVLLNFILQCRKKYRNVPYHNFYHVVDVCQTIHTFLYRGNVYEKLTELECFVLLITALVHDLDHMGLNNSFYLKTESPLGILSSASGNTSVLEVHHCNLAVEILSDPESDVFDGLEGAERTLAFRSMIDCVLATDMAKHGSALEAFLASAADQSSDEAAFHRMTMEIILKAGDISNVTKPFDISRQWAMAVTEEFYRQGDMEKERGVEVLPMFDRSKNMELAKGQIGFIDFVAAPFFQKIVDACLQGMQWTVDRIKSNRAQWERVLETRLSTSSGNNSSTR
# assayNotes: Inhibition of recombinant Trypanosoma brucei PDEB1 using [3H]-cAMP as substrate after 15 mins by scintillation proximity assay
Checkbox rule: IC50 lower than 2000 nM = Met; IC50 not lower than 2000 nM = Not met.

INSERT INTO measurements (compound, assignedlabel) VALUES
  ('COc1cc(COc2cc(C3=NN(C4CCCCCC4)C(=O)[C@@H]4CC=CC[C@H]34)ccc2OC)cc(OC)c1 (racemic)', 'Met'),
  ('COc1ccc(C2=NN(C3CCCCCC3)C(=O)[C@@H]3CC=CC[C@H]23)cc1OCCc1ccc(N(C)C)cc1 (racemic)', 'Met'),
  ('COc1ccc(C2=NN(C3CCCCCC3)C(=O)[C@@H]3CC=CC[C@H]23)cc1OCCCCCc1ccccc1 (racemic)', 'Met'),
  ('COc1ccc(C2=NN(C3CCCCCC3)C(=O)[C@@H]3CC=CC[C@H]23)cc1OCCO (racemic)', 'Met'),
  ('COc1ccc(C2=NN(C3CCCCCC3)C(=O)[C@@H]3CCCC[C@H]23)cc1OC (racemic)', 'Met'),
  ('COc1cccc(C2=NN(C3CCCCCC3)C(=O)[C@@H]3CC=CC[C@H]23)c1 (racemic)', 'Not met'),
  ('COc1ccc(C2=NN(C3CCCCCC3)C(=O)[C@@H]3CC=CC[C@H]23)cc1 (racemic)', 'Not met');

* * *

Reported selectivity ratio by item:
# assayNotes: Selectivity index, ratio of CC50 for human MRC5 cells to EC50 for suramin-sensitive Trypanosoma brucei brucei Squib427
# Assay type: toxicity, cell-based
# condition: read-out: Ratio CC50/EC50
propertyLabel: selectivity ratio

INSERT INTO results (compound, resultcomparator, recordedvalue) VALUES
  ('COc1ccc(C2=NN(C3CCCCCC3)C(=O)[C@@H]3CC=CC[C@H]23)cc1OCCc1ccc(N(C)C)cc1 (racemic)', '>', 63),
  ('COc1ccc(C2=NN(C3CCCCCC3)C(=O)[C@@H]3CC=CC[C@H]23)cc1OCCO (racemic)', '=', 16),
  ('COc1ccc(C2=NN(C3CCCCCC3)C(=O)[C@@H]3CC=CC[C@H]23)cc1OCCCCOc1ccc(-c2nnnn2C)cc1 (racemic)', '>', 125),
  ('COc1ccc(C2=NN(C3CCCCCC3)C(=O)[C@@H]3CC=CC[C@H]23)cc1OCc1ccncc1 (racemic)', '=', 12.6),
  ('COc1cc(COc2cc(C3=NN(C4CCCCCC4)C(=O)[C@@H]4CC=CC[C@H]34)ccc2OC)cc(OC)c1 (racemic)', '=', 12.6),
  ('COc1ccc(C2=NN(C3CCCCCC3)C(=O)[C@@H]3CC=CC[C@H]23)cc1OCc1cccc(OC)c1OC (racemic)', '=', 2.5),
  ('COc1ccc(C2=NN(C3CCCCCC3)C(=O)[C@@H]3CC=CC[C@H]23)cc1OCCCCCc1ccccc1 (racemic)', '>', 13);
